Test system: cancer cell lines
Assay: Cancer cell proliferation activity (CellTiterGlo, 72 h)
Format: cell-based
Settings: Homo sapiens, PLC-PRF-5, 72 h, PLCPRF5 cell line (liver), 72 h; read-out: IC50
measurement kind: pIC50
To interpret pIC50, take it as minus log10 of a concentration measured in moles per litre.

compound: CC[C@]1(CO)O[C@@H](n2cnc3c(N)nc(F)nc32)C[C@@H]1O [Cpd. No. 1]
pIC50: 5.49

compound: CCC[C@]1(CO)O[C@@H](n2cnc3c(N)nc(F)nc32)C[C@@H]1O [Cpd. No. 129]
pIC50: 5.69

compound: CC[C@]1(CO)O[C@@H](n2cnc3c(N)nc(F)nc32)[C@H](O)[C@@H]1O [Cpd. No. 173]
pIC50: 6.20

Could you share which pIC50 value was measured for C[C@]1(CO)O[C@@H](n2cnc3c(N)nc(F)nc32)C[C@@H]1O [Cpd. No. 126] ?
5.67

How about this compound: Nc1ccn([C@@H]2O[C@H](CO)[C@@H](O)C2(F)F)c(=O)n1 [gemcitabine, reference compound]
8.04

---

Test system: cancer cell lines
Test: Cancer cell proliferation activity (CellTiterGlo, 72 h)
Format: cell-based
Settings: Homo sapiens, HT-29, 72 h, HT29 (colon), 72 h; read-out: IC50 cell proliferation
Quick reference for pIC50 among some molecules
// pIC50 is dimensionless: -log10 of concentration (M)

Known results for molecules:
molecule: Nc1nc(=O)n([C@H]2C[C@H](O)[C@@H](CO)O2)cc1F [compound 169]
measurement kind: pIC50
recorded value: 8.70
//
molecule: CCC[C@]1(CO)O[C@@H](n2cnc3c(N)nc(F)nc32)[C@H](O)[C@@H]1O [compound 195]
measurement kind: pIC50
recorded value: 6.59
//
molecule: C[C@]1(CO)O[C@@H](n2cnc3c(N)nc(F)nc32)[C@H](O)[C@@H]1O [Cpd. No. 178]
measurement kind: pIC50
recorded value: 7.30
//
molecule: Nc1nc(F)nc2c1ncn2[C@H]1C[C@H](O)[C@@H](CO)O1 [compound 171]
measurement kind: pIC50
recorded value: 6.15
//
molecule: Nc1nc(F)nc2c1ncn2[C@@H]1O[C@H](CO)[C@@H](O)[C@H]1O [compound 184]
measurement kind: pIC50
recorded value: 7.15

I am curious: what pIC50 value has been reported for Nc1nc(=O)n([C@H]2C[C@H](O)[C@](CO)(CF)O2)cc1F [Cpd. No. 197] ?
7.22

What would you report for Nc1nc(F)nc2c1ncn2[C@@H]1O[C@H](CO)[C@@H](O)[C@@H]1O [compound 170] ?
4.73

---

Readings of pIC50 for the listed molecules
System: cancer cell lines
Assay: Cancer cell proliferation activity (CellTiterGlo, 72 h)
Assay type: cell-based
Settings: 72 h, CLS439 (bladder), 72 h; read-out: IC50 cell proliferation
Schema: pIC50 number; meaning minus log10 of the concentration expressed in molar units.

So what's the measured pIC50 for this one? CCC[C@]1(CO)O[C@@H](n2cnc3c(N)nc(F)nc32)[C@H](O)[C@@H]1O [compound 195]
6.40

What about this molecule? C[C@]1(CO)O[C@@H](n2cnc3c(N)nc(F)nc32)[C@H](O)[C@@H]1O [Cpd. No. 178]
6.11

Now the molecule Nc1nc(F)nc2c1ncn2[C@H]1C[C@H](O)[C@@H](CO)O1 [compound 171]
5.58

Repeat with Nc1nc(=O)n([C@H]2C[C@H](O)[C@@H](CO)O2)cc1F [compound 169]
7.64

---

Test system: cancer cell lines
Experiment: Cancer cell proliferation activity (CellTiterGlo, 72 h)
Type: cell-based
Conditions: 72 h, CLS439 cell line (bladder), 72 h; read-out: IC50
pIC50: −log10 of the molar value.
measurement kind: pIC50

molecule: C[C@]1(CO)O[C@@H](n2cnc3c(N)nc(F)nc32)C[C@@H]1O
target of assay: cancer cell lines
pIC50: < 4.30
--
molecule: COC[C@]1(CO)O[C@@H](n2cnc3c(N)nc(F)nc32)C[C@@H]1O
target of assay: cancer cell lines
pIC50: 5.01
--
molecule: Cc1cn([C@H]2C[C@H](O)[C@@](C#N)(CO)O2)c(=O)[nH]c1=O
target of assay: cancer cell lines
pIC50: < 4.30
--
molecule: CC[C@]1(CO)O[C@@H](n2cc(F)c(N)nc2=O)C[C@@H]1O
target of assay: cancer cell lines
pIC50: < 4.30

If you can, please state the reported pIC50 value of "CC(C)C[C@]1(CO)O[C@@H](n2cnc3c(N)nc(F)nc32)C[C@@H]1O" .
< 4.30

Next record, please: "C[C@]1(CO)O[C@@H](n2cc(F)c(=O)[nH]c2=O)C[C@@H]1O"
< 4.30

Same question, "CC[C@]1(CO)O[C@@H](n2cnc3c(N)nc(F)nc32)C[C@@H]1O" this time
< 4.30

Next molecule: "Nc1nc(F)nc2c1ncn2[C@H]1C[C@H](O)[C@](CO)(CF)O1"
< 4.30

Input "N#C[C@]1(CO)O[C@@H](n2cc(F)c(N)nc2=O)C[C@@H]1O"
< 4.30

---

Test system: cancer cell lines
Test: Cancer cell proliferation activity (CellTiterGlo, 72 h)
Assay type: cell-based
Details: Homo sapiens, MINO, 72 h, MINO cell line (hematological), 72 h; read-out: IC50
Below, each entry is listed with its recorded log10 IC50.
The common logarithm of IC50 in µM is what is listed.

Below: 7 compounds and their reported log10 IC50.
compound: COC[C@]1(CO)O[C@@H](n2cnc3c(N)nc(F)nc32)C[C@@H]1O [Cpd. No. 140]
target of assay: cancer cell lines
log10 IC50: -0.74
--
compound: N#C[C@]1(CO)O[C@@H](n2cc(F)c(N)nc2=O)C[C@@H]1O [Cpd. No. 6]
target of assay: cancer cell lines
log10 IC50: -0.17
--
compound: C[C@]1(CO)O[C@@H](n2cnc3c(N)nc(F)nc32)C[C@@H]1O [Cpd. No. 126]
target of assay: cancer cell lines
log10 IC50: -0.92
--
compound: CC(C)C[C@]1(CO)O[C@@H](n2cnc3c(N)nc(F)nc32)C[C@@H]1O [Cpd. No. 133]
target of assay: cancer cell lines
log10 IC50: 0.40
--
compound: Nc1ccn([C@@H]2O[C@H](CO)[C@@H](O)C2(F)F)c(=O)n1 [gemcitabine, reference compound]
target of assay: cancer cell lines
log10 IC50: -3.52
--
compound: Nc1nc(F)nc2c1ncn2[C@H]1C[C@H](O)[C@](CO)(CF)O1 [compound 150]
target of assay: cancer cell lines
log10 IC50: 0.03
--
compound: O=c1[nH]c(=O)n([C@H]2C[C@H](O)[C@](CO)(CF)O2)cc1F [Cpd. No. 112]
target of assay: cancer cell lines
log10 IC50: 0.36

Could you now look at the following compound, please?
// query log10 IC50 value for entry CC[C@]1(CO)O[C@@H](n2cnc3c(N)nc(F)nc32)C[C@@H]1O [Cpd. No. 1]
-0.60

---

Tested on: cancer cell lines
Test: Cancer cell proliferation activity (CellTiterGlo, 72 h)
Type: cell-based
Conditions: Homo sapiens, HEK293, 72 h, HEK293 cell line (kidney), 72 h; read-out: IC50
measurement kind: pIC50
Quick note: pIC50 values are minus log10 of concentrations in mol/L.

molecule: Nc1ccn([C@@H]2O[C@H](CO)[C@@H](O)C2(F)F)c(=O)n1 [gemcitabine, reference compound]
target of assay: cancer cell lines
pIC50: 7.68
--
molecule: C=C[C@]1(CO)O[C@@H](Nc2[nH]c(=O)ncc2Br)C[C@@H]1O
target of assay: cancer cell lines
pIC50: 5.46
--
molecule: CC[C@]1(CO)O[C@@H](n2cnc3c(N)nc(F)nc32)C[C@@H]1O
target of assay: cancer cell lines
pIC50: 6.15
--
molecule: CC[C@]1(CO)O[C@@H](n2cnc3c(N)nc(F)nc32)[C@H](O)[C@@H]1O
target of assay: cancer cell lines
pIC50: 6.85
--
molecule: CCC[C@]1(CO)O[C@@H](n2cnc3c(N)nc(F)nc32)C[C@@H]1O
target of assay: cancer cell lines
pIC50: 6.42

Here's the next entry for you.
Which pIC50 value is on record for "C[C@]1(CO)O[C@@H](n2cnc3c(N)nc(F)nc32)C[C@@H]1O" ?
6.13

---

Test system: cancer cell lines
Assay: Cancer cell proliferation activity (CellTiterGlo, 72 h)
Format: cell-based
Conditions: Homo sapiens, MDA-MB-468, 72 h, MDAMB468 (breast), 72 h; read-out: IC50 cell proliferation
pIC50: −log10 of the molar value.
Criterion: pIC50 meeting or surpassing 7. Met: label 1. Not met: label 0.

Item "C[C@]1(CO)O[C@@H](n2ccc(N)nc2=O)[C@@H](O)[C@@H]1O" with pIC50 of 7 or above?
label 0

# repeat for "Nc1nc(=O)n([C@H]2C[C@H](O)[C@@H](CO)O2)cc1F"
label 1

Let us now turn to "Nc1nc(=O)n([C@H]2C[C@H](O)[C@](CO)(CF)O2)cc1F"
label 0

Follow-up item: "Nc1nc(F)nc2c1ncn2[C@H]1C[C@H](O)[C@@H](CO)O1"
label 0

Then this compound: "Nc1nc(F)nc2c1ncn2[C@@H]1O[C@H](CO)[C@@H](O)[C@@H]1O"
label 0

And then "C[C@]1(CO)O[C@@H](n2ccc(N)nc2=O)C(F)(F)[C@@H]1O" , what is it?
label 0

Measured values drawn from patent US20250215039A1 for this set.
